Tested on: TRAMP-C1A
Method summary: Growth inhibition of mouse C1A cells after 72 hrs by MTT assay
Type: functional
Measured property: GI50 (nM)
Answers are plain numbers, in nM.

A selection of reference data follows.
Molecule: COc1cccc2c1C(=O)c1c(O)c3c(c(O)c1C2=O)C[C@@](O)(C(=O)CO)C[C@@H]3O[C@H]1C[C@H](N)[C@H](O)[C@H](C)O1
Reported result: 20.4

Molecule: C[C@H]1[C@@H](CC(CNc2ccccc2)C[C@H]2O[C@@H]3O[C@@]4(C)CC[C@H]5[C@H](C)CC[C@@H]([C@H]2C)[C@@]35OO4)O[C@@H]2O[C@@]3(C)CC[C@H]4[C@H](C)CC[C@@H]1[C@@]24OO3 (some centres undefined)
Reported result: 18

Molecule: CCOP(=O)(OCC)OCC(C[C@H]1O[C@@H]2O[C@@]3(C)CC[C@H]4[C@H](C)CC[C@@H]([C@H]1C)[C@@]24OO3)C[C@H]1O[C@@H]2O[C@@]3(C)CC[C@H]4[C@H](C)CC[C@@H]([C@H]1C)[C@@]24OO3 (some centres undefined)
Reported result: 42.2

[in] Which GI50 value is on record for C[C@H]1[C@@H](CC(COP(=O)(Oc2ccccc2)Oc2ccccc2)C[C@H]2O[C@@H]3O[C@@]4(C)CC[C@H]5[C@H](C)CC[C@@H]([C@H]2C)[C@@]35OO4)O[C@@H]2O[C@@]3(C)CC[C@H]4[C@H](C)CC[C@@H]1[C@@]24OO3 (some centres undefined) ?
[out] 31.9

###

Test system: TRAMP-C2H
Method summary: Growth inhibition of mouse C2H cells after 72 hrs by MTT assay
Assay type: functional
Assign GI50 to each entry below.
One number for each entry, in nM.

A selection of reference data follows.
Compound: COc1cccc2c1C(=O)c1c(O)c3c(c(O)c1C2=O)C[C@@](O)(C(=O)CO)C[C@@H]3O[C@H]1C[C@H](N)[C@H](O)[C@H](C)O1
Scale unit: nM
GI50: 15.8
--
Compound: C[C@H]1[C@@H](CC(COP(=O)(Oc2ccccc2)Oc2ccccc2)C[C@H]2O[C@@H]3O[C@@]4(C)CC[C@H]5[C@H](C)CC[C@@H]([C@H]2C)[C@@]35OO4)O[C@@H]2O[C@@]3(C)CC[C@H]4[C@H](C)CC[C@@H]1[C@@]24OO3 (some centres undefined)
Scale unit: nM
GI50: 44.8
--
Compound: CCOP(=O)(OCC)OCC(C[C@H]1O[C@@H]2O[C@@]3(C)CC[C@H]4[C@H](C)CC[C@@H]([C@H]1C)[C@@]24OO3)C[C@H]1O[C@@H]2O[C@@]3(C)CC[C@H]4[C@H](C)CC[C@@H]([C@H]1C)[C@@]24OO3 (some centres undefined)
Scale unit: nM
GI50: 39.4

Turning now to a further compound:
[in] Which GI50 value is on record for C[C@H]1[C@@H](CC(CNc2ccccc2)C[C@H]2O[C@@H]3O[C@@]4(C)CC[C@H]5[C@H](C)CC[C@@H]([C@H]2C)[C@@]35OO4)O[C@@H]2O[C@@]3(C)CC[C@H]4[C@H](C)CC[C@@H]1[C@@]24OO3 (some centres undefined) ?
[out] 17
